Property Measured: melting point

# input Tell me the measured melting point of O=C(O)COc1ccc(Cl)cc1-c1ccc(S(=O)(=O)N2CCOCC2)c(C(F)(F)F)c1 , please.
# output 208 to 209 °C

New cases:
# input Tell me the measured melting point of O=C(O)COc1ccc(Cl)cc1-c1ccc(C(=O)N2CCCC2)c(C(F)(F)F)c1 , please.
# output 197 to 198 °C

# input Tell me the measured melting point of C[C@H](Oc1ccc(Cl)cc1-c1ccc(C(=O)N2CCCC2)c(C(F)(F)F)c1)C(=O)O , please.
# output 164 to 165 °C

# input Tell me the measured melting point of CCS(=O)(=O)c1ccc(-c2cc(C(F)(F)F)ccc2O[C@@H](C)C(=O)O)cc1C(F)(F)F , please.
# output 124 to 126 °C
